tested on: MDA-MB-436; assay: Cell growth inhibition, MDA-MB-436 breast cancer cells (WST-8); type: cell-based; settings: Homo sapiens, MDA-MB-436, 96 h; 4 days; read-out: IC50 (nM) MDA-MB-436 Cell Line (WST assay)
What log10 of IC50 was measured for each of the following?
Answers are given as log10 of IC50 in nM.

Task item: Any idea what its log10 of IC50 is? The compound is "COc1cc2c(cc1-c1c(C)noc1C)[nH]c1nc(C)nc(Nc3cccc(N(C)C)c3)c12"
Reply: 2.09

Task item: Any idea what its log10 of IC50 is? The compound is "COc1cc2c(cc1-c1c(C)noc1C)[nH]c1nc(C)nc(Nc3cnn4ccccc34)c12"
Reply: 1.92

Task item: Any idea what its log10 of IC50 is? The compound is "COc1cc2c(cc1-c1c(C)noc1C)[nH]c1nc(C)nc(Nc3c(C)c(C)nn3C3CC3)c12"
Reply: 1.11

Task item: Any idea what its log10 of IC50 is? The compound is "COc1cc2c(cc1-c1c(C)noc1C)[nH]c1nc(C)nc(Nc3cccc4ncccc34)c12"
Reply: 1.76

Task item: Any idea what its log10 of IC50 is? The compound is "COc1cc2c(cc1-c1c(C)noc1C)[nH]c1nc(C)nc(Nc3nnc4ccccn34)c12"
Reply: 2.91

Task item: Any idea what its log10 of IC50 is? The compound is "COc1cc2c(cc1-c1c(C)noc1C)[nH]c1ncnc(Nc3nn(C)c4ccccc34)c12"
Reply: 1.71

Task item: Any idea what its log10 of IC50 is? The compound is "COc1cc2c(cc1-c1c(C)noc1C)[nH]c1nc(C)nc(Nc3c(C)c(C)nn3C(C)C)c12"
Reply: 1.83

Task item: Any idea what its log10 of IC50 is? The compound is "COc1cc2c(cc1-c1c(C)noc1C)[nH]c1nc(C)nc(Nc3ccc4cc[nH]c4c3)c12"
Reply: 2.35

Task item: Any idea what its log10 of IC50 is? The compound is "COc1cc2c(cc1-c1c(C)noc1C)[nH]c1nc(C)nc(Nc3c(C)nn(C)c3C)c12"
Reply: 1.95

Task item: Any idea what its log10 of IC50 is? The compound is "COc1cc2c(cc1-c1c(C)noc1C)[nH]c1nc(C)nc(Nc3c(C)c(C4CC4)nn3C)c12"
Reply: 2.50

---

target: recombinant BRD4 BD1 (Homo sapiens); construct: for recombinant BRD4 BD1 and BRD4 BD2 proteins; experiment: Competitive fluorescence-polarization (FP) binding assay, BRD4 BD1; conditions: competitive FP assay; protein 10 nM, probe […]; read-out: IC50 (nM) BRD4 BD1; note: probe 1.5 nM
What IC50 was measured for each of the following?

Task item: Any idea what its IC50 is? The compound is "COc1cc2c(cc1-c1c(C)noc1C)[nH]c1nc(C)nc(Oc3cncc(Br)c3)c12"
Reply: > 1000 nM

Task item: Any idea what its IC50 is? The compound is "COc1cc2c(cc1-c1c(C)noc1C)[nH]c1nc(C)nc(Nc3nn(C)c4ccc(Cl)cc34)c12"
Reply: > 1000 nM

Task item: Any idea what its IC50 is? The compound is "COc1cc2c(cc1-c1c(C)noc1C)[nH]c1nc(C)nc(Sc3c[nH]c4ccccc34)c12"
Reply: > 1000 nM

---

target: recombinant BRD4 BD2 (Homo sapiens); construct: for recombinant BRD4 BD1 and BRD4 BD2 proteins; test: Competitive fluorescence-polarization (FP) binding assay, BRD4 BD2; details: FP competitive binding, BRD4 BD2; read-out: Binding affinities (FP) BRD4BD2 Ki
pKi: −log10 of the molar value.
What pKi was measured for each of the following?

Task item: Any idea what its pKi is? The compound is COCCc1nc(Nc2cc(C3CC3)nn2C)c2c(n1)[nH]c1cc(-c3c(C)noc3C)c(OC)cc12 [Cpd. No. 287]
Reply: > 9.00

Task item: Any idea what its pKi is? The compound is COc1cc2c(cc1-c1c(C)noc1C)[nH]c1nc(N)nc(Nc3c4c(nn3C(C)C)CCC4)c12 [Cpd. No. 292]
Reply: > 9.00

Task item: Any idea what its pKi is? The compound is CCn1nc(C2CC2)cc1Nc1nc(N)nc2[nH]c3cc(-c4c(C)noc4C)c(OC)cc3c12 [Cpd. No. 290]
Reply: > 9.00

---

What IC50 was measured for each of the following?
tested on: MOLM-13; assay: Cell growth inhibition, MOLM-13 leukemia cells (CellTiter-Glo); format: cell-based; details: Homo sapiens, MOLM-13, 96 h; 4 days; read-out: IC50 (nM) MOLM-13 Cell Line (CellTiter-Glo assay)
The reply should contain only the number, in nM.

Task item: MOLM-13 / IC50 / "COc1cc2c(cc1-c1c(C)noc1C)[nH]c1nc(C)nc(Nc3[nH]ncc3C(C)C)c12" : value?
Reply: 40.9

Task item: MOLM-13 / IC50 / "COc1cc2c(cc1-c1c(C)noc1C)[nH]c1nc(C)nc(Nc3c(C)c(C)nn3C(C)(C)C)c12" : value?
Reply: 17

Task item: MOLM-13 / IC50 / "COc1cc2c(cc1-c1c(C)noc1C)[nH]c1nc(C)nc(NC3CCCC3)c12" : value?
Reply: 853

Task item: MOLM-13 / IC50 / "COc1cc2c(cc1-c1c(C)noc1C)[nH]c1nc(C)nc(Nc3cc(C(F)(F)F)nn3C(C)C)c12" : value?
Reply: 77.5

Task item: MOLM-13 / IC50 / "COc1cc2c(cc1-c1c(C)noc1C)[nH]c1nc(C)nc(Nc3cn(C)nc3C(C)(C)C)c12" : value?
Reply: 8.1

Task item: MOLM-13 / IC50 / "CCn1ncc(C)c1Nc1nc(C)nc2[nH]c3cc(-c4c(C)noc4C)c(OC)cc3c12" : value?
Reply: 52.9

Task item: MOLM-13 / IC50 / "CCn1nc(C(F)(F)F)cc1Nc1nc(C)nc2[nH]c3cc(-c4c(C)noc4C)c(OC)cc3c12" : value?
Reply: 26

---

What IC50 was measured for each of the following?
target: recombinant BRD4 BD2 (Homo sapiens); construct: for recombinant BRD4 BD1 and BRD4 BD2 proteins; test: Competitive fluorescence-polarization (FP) binding assay, BRD4 BD2; conditions: competitive FP assay; protein 6 nM, probe […]; read-out: IC50 (nM) BRD4 BD2; for IC50 (nM) BRD4 BD2: probe 1.5 nM
The reply should contain only the number, in nM.

Task item: Any idea what its IC50 is? The molecule is COc1cc2c(cc1-c1c(C)noc1C)[nH]c1nc(C)nc(Nc3cc(C4CC4)nn3C3CC3)c12 [Cpd. No. 152]
Reply: 5.6

Task item: Any idea what its IC50 is? The molecule is COc1cc2c(cc1-c1c(C)noc1C)[nH]c1nc(C)nc(Nc3scnc3C(C)(C)C)c12 [Cpd. No. 33]
Reply: 21.5

Task item: Any idea what its IC50 is? The molecule is COc1cc2c(cc1-c1c(C)noc1C)[nH]c1nc(C)nc(Nc3cnc(C)n3C)c12 [Cpd. No. 171]
Reply: 79.5

Task item: Any idea what its IC50 is? The molecule is COc1cc2c(cc1-c1c(C)noc1C)[nH]c1nc(C)nc(Nc3cc(C)ccn3)c12 [Cpd. No. 110]
Reply: 33

Task item: Any idea what its IC50 is? The molecule is COc1cc2c(cc1-c1c(C)noc1C)[nH]c1nc(C)nc(Nc3c4c(nn3C(C)C)CCCC4)c12 [Cpd. No. 138]
Reply: 1.2

Task item: Any idea what its IC50 is? The molecule is COc1cc2c(cc1-c1c(C)noc1C)[nH]c1nc(C)nc(Nc3ccccc3)c12 [Cpd. No. 226]
Reply: 20

Task item: Any idea what its IC50 is? The molecule is CCn1nc(C(F)(F)F)cc1Nc1nc(C)nc2[nH]c3cc(-c4c(C)noc4C)c(OC)cc3c12 [Cpd. No. 146]
Reply: 7.7

Task item: Any idea what its IC50 is? The molecule is COc1cc2c(cc1-c1c(C)noc1C)[nH]c1nc(C)nc(Nc3cn(C)cn3)c12 [Cpd. No. 166]
Reply: 161

Task item: Any idea what its IC50 is? The molecule is COc1cc2c(cc1-c1c(C)noc1C)[nH]c1nc(C)nc(Nc3c4c(nn3C)CCCC4)c12 [Cpd. No. 125]
Reply: 2

Task item: Any idea what its IC50 is? The molecule is COc1cc2c(cc1-c1c(C)noc1C)[nH]c1nc(C)nc(Nc3cc(F)cc(Cl)c3)c12 [Cpd. No. 225]
Reply: 108

Task item: Any idea what its IC50 is? The molecule is COc1cc2c(cc1-c1c(C)noc1C)[nH]c1nc(C)nc(Oc3cccnc3)c12 [Cpd. No. 96]
Reply: 379
